All figures here come from ChEMBL document CHEMBL1201862.

- Test system: SR
- test.method.notes: NCI tumour cell line growth inhibition, 48 h
Active and inactive are the calls of the source. Cut-off read from the data, not from the text of the source: active = GI50 up to about 1.1 µM and inactive = higher.
Form entry, call: pick from label 1 for active, label 0 for inactive

Qu. Test call for this compound, please: COc1cc2c3c(c1)CCCN3CCC2
Ans. label 0

Qu. Test call for this compound, please: CC(C)(C)C(=C[S+]([O-])/N=C/c1ccccc1)C(C)(C)C (stereo unspecified)
Ans. label 0

Qu. Test call for this compound, please: CC1=CC(=O)N2C(OC[C@@H]2c2ccccc2)O1 (stereo partly specified)
Ans. label 0

Qu. Test call for this compound, please: Nc1nc(Cl)nc2c1ncn2C1CCC(COP(=O)(O)OP(=O)(O)OP(=O)(O)O)O1 (stereo unspecified)
Ans. label 0

Qu. Test call for this compound, please: O=C(O)CCSC(=S)Nc1ccc([N+](=O)[O-])cc1
Ans. label 0

Qu. Test call for this compound, please: CC(NC(=O)c1ccc(OP(=O)(OCc2ccc([N+](=O)[O-])o2)N(C)CCCCCl)cc1)c1ccc(OCC2CCCCC2)c(C(N)=O)c1 (stereo unspecified)
Ans. label 0

Qu. Test call for this compound, please: Cc1c2cc[n+]([O-])cc2c(C)c2c1[nH]c1ccccc12
Ans. label 0

Qu. Test call for this compound, please: CN(C)Cc1ccc(-c2cc3onc(-c4ccccc4)c3c(=O)n2C)cc1
Ans. label 0

Qu. Test call for this compound, please: CCc1c(C)c(C#N)c(=S)n(C2OC(COC(C)=O)C(OC(C)=O)C(OC(C)=O)C2OC(C)=O)c1-c1ccccc1 (stereo unspecified)
Ans. label 0

Qu. Test call for this compound, please: Cc1ncc2c(=O)c3c(oc2n1)c1ccccc1n3Cc1ccccc1
Ans. label 0

Qu. Test call for this compound, please: [O-][n+]1c2ccccc2[n+]([O-])c2cc(Br)ccc21
Ans. label 0

Qu. Test call for this compound, please: CCCN(CCC)CCc1cc(C(C)=O)n(S(=O)(=O)c2ccc(C)cc2)c1
Ans. label 0

Qu. Test call for this compound, please: CCOC(=O)/C=C(\C)c1ccc(C)cc1C
Ans. label 0

Qu. Test call for this compound, please: Cc1c([N+](=O)[O-])oc2ccc3ccccc3c12
Ans. label 0

Qu. Test call for this compound, please: O=C(c1cc2c(c3ccccc13)NC1(CCCCC1)N=C2C(F)(F)F)C(F)(F)F
Ans. label 0

Qu. Test call for this compound, please: Cc1ccnc2nc(-c3ccc4ccccc4c3)cc(O)c12
Ans. label 1

Qu. Test call for this compound, please: N=NCC(=O)OC(COCc1ccccc1)COCc1ccccc1
Ans. label 0

Qu. Test call for this compound, please: O=C1c2cccnc2-c2nccc3c2c1nc1ccc(Br)cc13
Ans. label 1

Qu. Test call for this compound, please: CCOC(=O)c1c2c(n(C)c1-c1ccccc1)C(=O)C(C)=CC2=O
Ans. label 0

Qu. Test call for this compound, please: Cc1cc(C)n(CN(Cn2nc(C)cc2C)c2ccccc2)n1
Ans. label 1

Qu. Test call for this compound, please: Clc1ccccc1/C=C/c1nsc(/C=C/c2ccccc2Cl)n1
Ans. label 0

###

- System: SR
- test.method.notes: NCI tumour cell line growth inhibition, 48 h
Activity calls are given as the source filed them. Cut-off read from the data, not from the text of the source: active = GI50 up to about 1.1 µM and inactive = higher.
Form entry, call: pick from yes for active, no for inactive

Qu. Test call for this compound, please: CCCCCCCCCCCCN(O)C(=O)c1ccccc1
Ans. no

Qu. Test call for this compound, please: Cc1nnc2n1-c1ccccc1N(Cc1ccccc1)CC2
Ans. no

Qu. Test call for this compound, please: CC(C)CCCC(C)[C@H]1CCC2[C@@H]3CCC4Cc5nc6c(nc5C[C@]4(C)C3CC[C@@]21C)CC1CC[C@@H]2C(C[C@@H](O)[C@@]3(C)C2C[C@@H]2OC4(CCC(C)CO4)C(C)[C@@H]23)[C@@]1(C)C6 (stereo partly specified)
Ans. no

Qu. Test call for this compound, please: [O-]c1c2cc(-[n+]3c(-c4ccccc4)cc(-c4ccccc4)cc3-c3ccccc3)cc1CO[C@@H](c1ccccc1)[C@H](c1ccccc1)OCCOCCO[C@@H](c1ccccc1)[C@H](c1ccccc1)OC2
Ans. yes

Qu. Test call for this compound, please: COC(=O)C(=O)C(C(=O)C1=NS(=O)(=O)c2cc(S(N)(=O)=O)c(Cl)cc2N1)c1nc2ccc(C(=O)c3ccccc3)cc2nc1O (stereo unspecified)
Ans. no

Qu. Test call for this compound, please: Nc1ncnc2oc(-c3cccs3)nc12
Ans. no

Qu. Test call for this compound, please: N=C(N)NS(=O)(=O)c1ccc(Nc2c3ccccc3nc3c(C(=O)Nc4ccc(S(N)(=O)=O)cc4)ccc(Cl)c23)cc1
Ans. no

Qu. Test call for this compound, please: COC(=O)[C@@H]1[C@H](O)[C@H](C)[C@H](O)[C@H](C)/C=C\C=C(\C)C(=O)Nc2c(C)c(OC(C)=O)c3c(c2O)C(=O)C(C)=C2OCOC(=C23)/C(C)=C/[C@@H](O)[C@H](O)[C@@H](C)[C@H]1OC(C)=O
Ans. no

Qu. Test call for this compound, please: C=C(Br)CNC(=O)Nc1ccc(Cl)c(Cl)c1
Ans. no

Qu. Test call for this compound, please: O=S1(=O)NN=C(NCc2ccc(Cl)c(Cl)c2)c2ccccc21
Ans. no

Qu. Test call for this compound, please: Cl/C(=C\C=N\c1ccc(I)cc1)c1ccc2ccccc2c1
Ans. no

Qu. Test call for this compound, please: CCOC(=O)NN(C(=O)OCC)C(=C(c1ccccc1)N1CCOCC1)N(NC(=O)OCC)C(=O)OCC
Ans. no

Qu. Test call for this compound, please: C=CCN1C[C@H](C)N([C@@H](c2ccc(C(=O)N3CCCCC3)cc2)c2cccc(OC)c2)C[C@H]1C
Ans. no

Qu. Test call for this compound, please: C#CC(O)/C=C/C(O)CCCC(O)CC#CC(O)C#CCCCCC(O)/C=C/CCCC(O)/C=C/CCCCCCCCCCCCCC(O)C(O)C#CC(=O)O (stereo unspecified)
Ans. no

Qu. Test call for this compound, please: Cc1ccc(S(=O)(=O)N/N=C2\C=CC3(CC2)C(=O)N(I)c2ccccc23)cc1 (stereo unspecified)
Ans. no

Qu. Test call for this compound, please: CCc1cc(-c2nsc(=O)o2)c(S(=O)(=O)CC)s1
Ans. no
